TEST DETAILS: melting temperature; fluorescence melt of hairpins on a sequencing array, two-state fit, raised by 9.35 °C to match UV melts
CONDITION CONTEXT: sodium 0.088 M
Provide the reported Tm of each item.
Report the value in °C with no unit label.

Look at this sequence and give its reported Tm. GTGGGGGGAAACCTCCGC (.((.((....)).)).)
45.4

Look at this sequence and give its reported Tm. GATCACGGTGGTGATC ((((((....))))))
58.3

Look at this sequence and give its reported Tm. GTTATGGCGAAAGCCAAC (((..(((....))))))
29.5

Look at this sequence and give its reported Tm. GGAAAGCGAAAGCTCTCC (((.(((....))).)))
44

Look at this sequence and give its reported Tm. GGACTTCGAAAGAAATCC (((.(((....))).)))
37.3

Look at this sequence and give its reported Tm. GCTGCCGAAAGGCTAGC ((((((....))).)))
59.6

Look at this sequence and give its reported Tm. GGTTCACCGAAAGGTACC (((..(((....))))))
32.2

Look at this sequence and give its reported Tm. GATCCATATTTGGATC ((((((....))))))
53.6

Look at this sequence and give its reported Tm. GGCGACGAAAGTCAGCC ((((((....))).)))
65.6

Look at this sequence and give its reported Tm. GGATGCGAAAGCATTTCC ((((((....)))..)))
38.8

Look at this sequence and give its reported Tm. GTCAGACGAAAGTCGGAC (((.(((....))).)))
63.1

Look at this sequence and give its reported Tm. GACTACGAAAGTACTGTC ((((((....)))..)))
29.9

Look at this sequence and give its reported Tm. GATCAAAAGTTGATC ((((((...))))))
39.5

Look at this sequence and give its reported Tm. GATCCTTATCAGGATC ((((((....))))))
51

Look at this sequence and give its reported Tm. GATGTTGGAAACAGCATC ((((.((....)).))))
45.5

Look at this sequence and give its reported Tm. GTCGCCGAAAGGCCCGAC ((((((....)))..)))
37.4

Look at this sequence and give its reported Tm. GATCGCCGTTGCGATC ((((((....))))))
66.2

Look at this sequence and give its reported Tm. GAGAACACGAAAGTGCTC (((..(((....))))))
32.9

Look at this sequence and give its reported Tm. CGGTCGGAAACGAGGCCG ((((((....)))..)))
41.5

Look at this sequence and give its reported Tm. GTGATAGGAAACCATCAC (((((.(....).)))))
39.3

Look at this sequence and give its reported Tm. GATCCGCGTCGGATC ((((((...))))))
57.3

Look at this sequence and give its reported Tm. GATCTCTTGAGAGATC ((((((....))))))
53.8

Look at this sequence and give its reported Tm. GCGATATCGAAAGATCGC (((..(((....))))))
50.1

Look at this sequence and give its reported Tm. GCCCTCGGAAACAAGGGC (((((.(....).)))))
49.6

Look at this sequence and give its reported Tm. GAGAACGCGAAAGCGCTC (((..(((....))))))
39

Look at this sequence and give its reported Tm. GTTGTTCGAAAGAATAAC (((.(((....))).)))
45.6

Look at this sequence and give its reported Tm. GATCCGCATCCGGATC ((((((....))))))
56.6

Look at this sequence and give its reported Tm. GGGGTTGGAAACAGCCCC ((((.((....)).))))
57.9

Look at this sequence and give its reported Tm. GTGAAACGAAAGTTACAC (((.(((....))).)))
46.2

Look at this sequence and give its reported Tm. GGAAACGAAAGTTTCTCC ((((((....)))..)))
45.9

Look at this sequence and give its reported Tm. GGGAACCCGAAAGGGCCC (((..(((....))))))
45.9

Look at this sequence and give its reported Tm. GTTGTCGAAAGACAAAC ((((((....))).)))
48.9

Look at this sequence and give its reported Tm. GAGTTTCCGAAAGGACTC (((..(((....))))))
30

Look at this sequence and give its reported Tm. GGTTCCGAAAGGACTACC ((((((....)))..)))
36.1

Look at this sequence and give its reported Tm. GCTGCAGGAAACCGCAAC (.(((.(....).))).)
27.3

Look at this sequence and give its reported Tm. GGATGCCGAAAGGCTTCC (((.(((....))).)))
60.3

Look at this sequence and give its reported Tm. GCATGATCGAAAGATTGC (((..(((....))))))
32.6

Look at this sequence and give its reported Tm. GCCATCGAAAGATAAGGC ((((((....)))..)))
44.8

Look at this sequence and give its reported Tm. GGAACACGAAAGTGCTCC (((.(((....))).)))
50.2

Look at this sequence and give its reported Tm. GATCGTCTGGACGATC ((((((....))))))
57.5

Look at this sequence and give its reported Tm. CGTAAGAAATTACG (((((....)))))
38.4

Look at this sequence and give its reported Tm. GTACTTGGAAACAAGTGC (.(((((....))))).)
47.4

Look at this sequence and give its reported Tm. GCATGCTCGAAAGAGTGC (((..(((....))))))
34.3

Look at this sequence and give its reported Tm. GGGCACCCGAAAGGGCCC (((..(((....))))))
58

Look at this sequence and give its reported Tm. GTTATCGGAAACGGTAAC ((((.((....)).))))
44.9

Look at this sequence and give its reported Tm. GGTTGTGGAAACATAACC ((((.((....)).))))
45.9

Look at this sequence and give its reported Tm. GTTGTCGAAAGACCGAAC ((((((....)))..)))
28.8

Look at this sequence and give its reported Tm. GTGAGCGGAAACGCTCGC (.(((((....))))).)
62.7

Look at this sequence and give its reported Tm. GATCTGTTGCAGATC ((((((...))))))
48.7

Look at this sequence and give its reported Tm. GATCATGTCCATGATC ((((((....))))))
54.8

Origin of measurements: the array DNA melting data of Ke et al. (doi:10.1101/2024.01.08.574731)
